# Test: NCI Yeast Anticancer Drug Screen. Data for the sgs1 mgt1 strain (AID 161);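 also: 0% = growth of cultures given vehicle only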
# Assay Setup: S. cerevisiae sgs1 mgt1 strain, at 50.0 µM (retest, dose inferred, filed as 5.0), hits give high values
This is part of a sample that, as a whole, favours compounds with a hit. Of some 79,000 tested, about 15% had one in any assay.
Value Type: growth inhibition (%)
Give just the numeric value; % need not be written.

Below, each entry is followed by its recorded growth inhibition result.
• c1ccc2c(c1)sc1nc3ccncc3nc12 = -16
• CCN(CC)CCC(=O)c1ccc(Oc2ccc(F)cc2)cc1 = 66
• Cc1cc(S(=O)(=O)/N=C(/NN)NNc2cccc(C(F)(F)F)n2)c(S)cc1Cl = 44
• Cc1c(Cl)ccc2c1S(=O)(=O)c1cccc(Cl)c1-2 = 28
• CN(C)c1nc2sc3c(c2c(=O)o1)CCCC3 = 19
• FC(F)(F)c1cc(NC(=S)N2c3ccccc3-n3cccc3C2c2cccnc2)cc(C(F)(F)F)c1 (stereo unspecified) = 69

Any idea what its growth inhibition is? The molecule is CN(CCc1ccccn1)c1ccc2c(c1)Cc1ccccc1-2
82

Also, O=C(N=Nc1cc(Cl)ccc1Cl)NNc1cc(Cl)ccc1Cl please.
73

Also, COc1ccccc1N=NC(C(=O)c1ccccc1)C(=O)c1ccccc1 please.
95

Also, CC1(C)C(=O)OC(n2cc(F)c(=O)[nH]c2=O)C1=O (stereo unspecified) please.
80

Also, NCCNc1ccc(NCCN)c2c1C(=O)c1c(O)ccc(O)c1C2=O please.
77
